List of growth values.
System: MDA-MB-435 melanoma
assay-protocol: NCI-60 one-dose screen, 48 h (100 = growth as untreated, 0 = no growth, -100 = all killed)
condition-label: 10 µM unless noted
Compounds without any hit were thinned out: in the full panel of roughly 83,000, 20% have a hit.
Enter your answer as a number in %; do not include the unit.

Below, each entry is followed by its recorded growth result.
molecule: COc1ccc(/C=C/C(=O)c2cc3c(N)c(C(=O)Nc4ccccc4)sc3nc2C)cc1
result-number: -23.9
--
molecule: COCCn1cc(-c2csc(-c3cn(C)c4ccc(F)cc34)n2)c2cccnc21
result-number: 40.8
--
molecule: Nc1ccc(S(=O)(=O)c2ccc(N)cc2)cc1
result-number: 94.6
--
molecule: CCN(CC)CC#CCOC(=O)[C@]1(C)CCC[C@]2(C)c3ccc(C(C)C)cc3CC[C@@H]12
result-number: 91.6
--
molecule: COCCOc1cc2ncnc(N3CCN(S(=O)(=O)c4ccccc4Cl)CC3)c2cc1OCCOC
result-number: 10.5
--
molecule: CCc1c2c(nc3ccc(OCc4ccc(B5OC(C)(C)C(C)(C)O5)cc4)cc13)-c1cc3c(c(=O)n1C2)COC(=O)[C@]3(O)CC
result-number: 9.46
--
molecule: CC(Sc1ccccc1)C(=O)O (stereo not given)
result-number: 96.5
--
molecule: CCCCCCCCN(CCCCCCCC)CC(O)c1cc(Cl)ccc1OC (stereo not given)
result-number: 83.6
--
molecule: CCCCSc1ccc2nc(-c3ccc(OCCCN=C(N)N)cc3)cn2c1
result-number: 47.6

Moving on to the next molecule.
Give its growth value. Item: CCN1C(=O)N(c2ccccc2)C2NC(=S)N(/N=C/C=C/c3ccccc3)C21 (stereo not given)
-35.1

====

Parameter: growth. Scope: all listed entries.
Test system: UACC-257 melanoma
assay-protocol: NCI-60 one-dose screen, 48 h (100 = growth as untreated, 0 = no growth, -100 = all killed)
condition-label: 10 µM unless noted
Experimental: Cells are grown in 96 well plates and exposed to the test compound for 48 hours. Compounds are tested at a single concentration, which is 10^-5 M for most compounds. The reported endpoint is percent growth (GI% or GIPRCNT), where numbers from 0 - 100% represent growth inhibition, and numbers from -100% - 0 represent cell death. For example, a value of 40 represents 60% growth inhibition. A value of 0 means no net growth occurred over the course of the experiment. […]
About 83,000 compounds went through this panel and 20% of them were active in at least one assay; those are over-represented in the sample as a whole. Active and inactive are the calls of the source. The calls were made as follows: active = growth percent below 10; inactive = the rest.

Example entries begin here.
molecule: C#CCOc1cccc(Nc2ncc3ncn(C4CCN(C(=O)CCl)C4)c3n2)c1 (centres undefined)
assayed-target: UACC-257 melanoma
growth: 72.6% [6.25 µM] (inactive)
//
molecule: O=C(CN1C(=O)S/C(=C\C(Cl)=C\c2ccccc2)C1=O)NC1C=CS(=O)(=O)C1 (centres undefined)
assayed-target: UACC-257 melanoma
growth: 45.2% (inactive)
//
molecule: Clc1cccc(Nc2ncnc3ccc(-c4cncc(-n5cnnn5)c4)cc23)c1
assayed-target: UACC-257 melanoma
growth: 92.9% (inactive)
//
molecule: Cc1ccc2nc3ccccc3c(NCc3ccc(Cl)cc3)c2c1
assayed-target: UACC-257 melanoma
growth: -2.88% (active)

Under UACC-257 melanoma: growth value of "O=C(CCCOc1ccc(Br)cc1)Nc1ncc(Cc2ccc(F)cc2)s1" ?
93.4% (inactive)

// lookup growth | system=UACC-257 melanoma | key= "CCCCCCCC/C=C\CCCCCCCCOc1ccccc1CC(=O)NCC[N+]1(C)CCOCC1"
83.8% (inactive)

Hey, just so you know, these numbers are from PubChem BioAssay (NCI).
